- Tested on: leukotriene C4 production in zymosan-stimulated murine peritoneal macrophages
- method.description: Leukotriene C4 production in zymosan-stimulated murine peritoneal macrophages
- Type: cell-based
- details: read-out: IC50, inhibition of leukotriene C4 production
observed.property: IC50
# answer = value followed by unit

The reported IC50 of the compound CC(C)=C[C@H]1C[C@H](C)[C@H]2CC[C@H](C)c3c(O[C@@H]4OC[C@@H](O)[C@H](O)[C@H]4O)c(O)c(C)c1c32 [PsA, Pseudopterosin A] was 1000 nM
